src = patent US10457707B2

Tested on: Bacillus subtilis, ATCC 23857
Experiment: Minimal inhibitory concentration assay (microbroth dilution)
Assay type: cell-based
Details: Bacillus subtilis, ATCC23857, read-out: Minimal Inhibitory Concentrations B. subtilis ATCC 23857
*1 amine or outer side, *2 acyl side, *3 side chain or, on linkers, in order; H or OH if unused. Where a SMILES comes first, the peptide text is derived from it. Bridges are numbered along the chain shown (N, C = ends). [ ]: non-standard residue; d: D form. The star is where a group is joined. Phe(3,5-F2) = N[C@@H](Cc1cc(F)cc(F)c1)C(=O)O; Pro(4R-Me) = C[C@H]1CN[C@H](C(=O)O)C1; NMeaThr = CN[C@H](C(=O)O)[C@H](C)O; NH(4-Me-phenyl) = Cc1ccc(N*)cc1; aThr = C[C@H](O)[C@H](N)C(=O)O; CO = O=C([*:1])[*:2]
Item-by-item account of MIC
Response body: numeric value in µM, unit text excluded.

COMPOUND	MEASURE UNIT	MIC
C[C@@H]1C[C@H]2C(=O)OC[C@H](NC(=O)[C@H](Cc3ccccc3)NC(=O)Nc3ccc(N(C)C)cc3)C(=O)N3CCC[C@H]3C(=O)N3CCCC[C@H]3C(=O)N[C@@H](C)C(=O)N2C1	µM	0.78

// below: MIC requested for another compound
Input: Given the compound Cc1ccc(NC(=O)N[C@@H](Cc2cc(F)cc(F)c2)C(=O)N[C@@H]2C(=O)N3CCC[C@H]3C(=O)N(C)[C@@H]([C@H](C)O)C(=O)N[C@@H](C)C(=O)N3C[C@H](C)C[C@H]3C(=O)O[C@H]2C)cc1 [Compound 208] ({NH(4-Me-phenyl)-CO}-[Phe(3,5-F2)][aThr]P[NMeaThr]A[Pro(4R-Me)]; ester 2-C) , write its reported MIC.
Output: 0.05

----------
Item-by-item account of MIC
System: Streptococcus pyogenes, ATCC 700294
Assay: Minimal inhibitory concentration assay (microbroth dilution)
Assay type: cell-based
Conditions: Streptococcus pyogenes, ATCC700294, read-out: Minimal Inhibitory Concentrations S. pyogenes ATCC 700294
*1 amine or outer side, *2 acyl side, *3 side chain or, on linkers, in order; H or OH if unused. Where a SMILES comes first, the peptide text is derived from it. Bridges are numbered along the chain shown (N, C = ends). [ ]: non-standard residue; d: D form. The star is where a group is joined. ξ: configuration not given here. Phe(3,5-F2) = N[C@@H](Cc1cc(F)cc(F)c1)C(=O)O; NH(1-Me-indolin-5-yl) = CN1CCc2cc(N*)ccc21; Morpholine(3S-CO) = O=C(O)[C@@H]1COCCN1; Pro(4R-Me) = C[C@H]1CN[C@H](C(=O)O)C1; ξPro(4R-OH) = O=C(O)C1C[C@@H](O)CN1; ξPro(4S-Me) = C[C@@H]1CNC(C(=O)O)C1; ξPro(4R-Me) = C[C@H]1CNC(C(=O)O)C1; Hyp = O=C(O)[C@@H]1C[C@@H](O)CN1; NMeT = CN[C@H](C(=O)O)[C@@H](C)O; NH(4-Me-phenyl) = Cc1ccc(N*)cc1; aThr = C[C@H](O)[C@H](N)C(=O)O; X5 = O=C(C1COCCN1[*:1])[*:2]; Pip = O=C(O)[C@@H]1CCCCN1; NMeA = CN[C@@H](C)C(=O)O; CO = O=C([*:1])[*:2]; ξP = O=C(O)C1CCCN1
Response body: numeric value in µM, unit text excluded.

As a guide, the following entries are already answered.
COMPOUND	SYSTEM NAME	MIC (µM)
C[C@@H]1C[C@H]2C(=O)OC[C@H](NC(=O)[C@H](Cc3ccccc3)NC(=O)Nc3ccc(Cl)cc3)C(=O)N3CCC[C@H]3C(=O)N3CCCC[C@H]3C(=O)N[C@@H](C)C(=O)N2C1 [Compound 3]	Streptococcus pyogenes, ATCC 700294	0.39
Cc1ccc(NC(=O)N[C@@H](Cc2cc(F)cc(F)c2)C(=O)N[C@@H]2C(=O)N3CCCC3C(=O)N3CCOCC3C(=O)N[C@@H](C)C(=O)N3C[C@@H](C)CC3C(=O)O[C@H]2C)cc1 (stereo partly drawn) [Compound 33] ({NH(4-Me-phenyl)-CO}-[Phe(3,5-F2)][aThr][ξP][X5]A[ξPro(4S-Me)]; ester 2-C)	Streptococcus pyogenes, ATCC 700294	0.39
C[C@@H]1C[C@H]2C(=O)OC[C@H](NC(=O)[C@H](Cc3ccccc3)NC(=O)Nc3ccc4c(c3)CCN4C)C(=O)N3CCC[C@H]3C(=O)N3CCCC[C@H]3C(=O)N[C@@H](C)C(=O)N2C1 [Compound 11]	Streptococcus pyogenes, ATCC 700294	0.6
Cc1ccc(NC(=O)N[C@@H](Cc2cc(F)cc(F)c2)C(=O)N[C@@H]2C(=O)N3C[C@H](O)CC3C(=O)N(C)[C@@H](C)C(=O)N[C@@H](C)C(=O)N3C[C@H](C)CC3C(=O)O[C@H]2C)cc1 (stereo partly drawn) [Compound 31] ({NH(4-Me-phenyl)-CO}-[Phe(3,5-F2)][aThr][ξPro(4R-OH)][NMeA]A[ξPro(4R-Me)]; ester 2-C)	Streptococcus pyogenes, ATCC 700294	0.78
Cc1ccc(NC(=O)N[C@@H](Cc2cc(F)cc(F)c2)C(=O)N[C@H]2COC(=O)[C@@H]3C[C@@H](C)CN3C(=O)[C@H](C)NC(=O)[C@@H]3CCCCN3C(=O)[C@@H]3CCCN3C2=O)cc1 [Compound 24]	Streptococcus pyogenes, ATCC 700294	0.5

Input: Given the compound Cc1ccc(NC(=O)N[C@@H](Cc2cc(F)cc(F)c2)C(=O)N[C@@H]2C(=O)N3C[C@H](O)C[C@H]3C(=O)N3CCCC[C@H]3C(=O)N[C@@H](C)C(=O)N3C[C@H](C)C[C@H]3C(=O)O[C@H]2C)cc1 [Compound 216] ({NH(4-Me-phenyl)-CO}-[Phe(3,5-F2)][aThr][Hyp][Pip]A[Pro(4R-Me)]; ester 2-C) , write its reported MIC.
Output: 0.2

Input: Given the compound Cc1ccc(NC(=O)N[C@@H](Cc2cc(F)cc(F)c2)C(=O)N[C@H]2COC(=O)[C@@H]3C[C@@H](C)CN3C(=O)[C@H](C)NC(=O)C3CCCCN3C(=O)[C@@H]3C[C@@H](O)CN3C2=O)cc1 (some centres unmarked) [Compound 323] , write its reported MIC.
Output: 0.156

Input: Given the compound C[C@@H]1C[C@H]2C(=O)O[C@@H](C)[C@H](NC(=O)[C@H](Cc3cc(F)cc(F)c3)NC(=O)Nc3ccc4c(c3)CCN4C)C(=O)N3C[C@H](O)C[C@H]3C(=O)N3CCOC[C@H]3C(=O)N[C@@H](C)C(=O)N2C1 [Compound 315] ({NH(1-Me-indolin-5-yl)-CO}-[Phe(3,5-F2)][aThr][Hyp][Morpholine(3S-CO)]A[Pro(4R-Me)]; ester 2-C) , write its reported MIC.
Output: 0.625

Input: Given the compound Cc1ccc(NC(=O)N[C@@H](Cc2cc(F)cc(F)c2)C(=O)N[C@@H]2C(=O)N3CCC[C@H]3C(=O)N(C)[C@@H]([C@@H](C)O)C(=O)N[C@@H](C)C(=O)N3C[C@H](C)C[C@H]3C(=O)O[C@H]2C)cc1 [Compound 38] ({NH(4-Me-phenyl)-CO}-[Phe(3,5-F2)][aThr]P[NMeT]A[Pro(4R-Me)]; ester 2-C) , write its reported MIC.
Output: 0.1
